Test system: HCV replicon cells
ASSAY REMARKS: HCV replicon FRET / luciferase assay (96-well plates)
Assay type: cell-based
CONDITION INFO: Hepatitis C virus, Table 1b; HCV replicon; read-out: EC50
OBSERVED PROPERTY: EC50

Some compounds with known EC50 results, for comparison:
CNC(=O)c1c(-c2ccc(F)cc2)oc2ccc(-c3cc(C(=O)NC4(c5ccccn5)CC4)c(OC)cc3C)cc12; < 250 nM
CNC(=O)c1c(-c2ccc(F)cc2)oc2ccc(-c3ccc(-c4cncc(C#N)c4)c(C(=O)NCC(C)C)c3)cc12; 250 to 1000 nM
CNC(=O)c1c(-c2ccc(F)cc2)oc2ccc(-c3cc(C(=O)NC4(c5cc(C)on5)CC4)c(OC)cc3C)cc12; < 250 nM
C#CCNC(=O)C1(NC(=O)c2ccc(C)c(-c3ccc4oc(-c5ccc(F)cc5)c(C(=O)NC)c4c3)c2)CC1; < 250 nM
CNC(=O)c1c(-c2ccc(F)cc2)oc2ccc(-c3cc(C(=O)NC4(C#N)CC4)ccc3C)cc12; < 250 nM
CNC(=O)c1c(-c2ccc(F)cc2)oc2ccc(-c3cccc(C(=O)NC(C)(C)c4ccccn4)c3)cc12; < 250 nM

get_value(item= CNC(=O)c1c(-c2ccc(F)cc2)oc2ccc(-c3cc(OC[C@@H]4CCCN4)cc(C(=O)NCC(C)C)c3)cc12 , readout=EC50) returns 1000 to 10000 nM

get_value(item= CNC(=O)c1c(-c2ccc(F)cc2)oc2ccc(-c3ccc(-c4cccc(CO)c4)c(C(=O)NCC(C)C)c3)cc12 , readout=EC50) returns < 250 nM
